- assayedTarget: Dihydrofolate reductase (Candida glabrata (strain ATCC 2001 / BCRC 20586 / JCM 3761 / NBRC 0622 / NRRL Y-65 / CBS 138), UniProt Q6FPH0)
- Sequence (Q6FPH0 whole entry): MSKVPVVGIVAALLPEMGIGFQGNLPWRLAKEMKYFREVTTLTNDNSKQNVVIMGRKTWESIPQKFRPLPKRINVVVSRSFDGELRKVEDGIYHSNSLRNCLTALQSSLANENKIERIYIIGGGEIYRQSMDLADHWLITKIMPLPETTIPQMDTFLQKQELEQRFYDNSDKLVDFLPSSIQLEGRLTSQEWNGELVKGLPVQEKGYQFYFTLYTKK
- assayProtocol: Enzyme Inhibition Assay
Threshold-based label: IC50 under 6 nM gives 1 (yes), IC50 not under 6 nM gives 0 (no).

Solved cases below.
compound	class
COc1cc(-c2ccccc2C)cc(C(C)C#Cc2c(C)nc(N)nc2N)c1 (stereo unspecified)	0 (no)
COc1cc(-c2ccc(C(C)(C)C)cc2)cc(C(C)C#Cc2c(C)nc(N)nc2N)c1 (racemic) [Biphenyl antifolate, 24]	0 (no)
COc1cc(-c2cc(C)cc(C)c2)cc([C@@H](C)C#Cc2c(C)nc(N)nc2N)c1 (racemic) [Biphenyl antifolate, 2]	1 (yes)
COc1ccc(-c2cc(OC)cc(C(C)C#Cc3c(C)nc(N)nc3N)c2)cc1 (racemic)	0 (no)
COc1cc(-c2ccc(C)cc2)cc([C@@H](C)C#Cc2c(C)nc(N)nc2N)c1 (racemic)	1 (yes)

Now look at this entry.
Exam item: Lab note: confirm whether the reported IC50 for this compound is below 6 nM, equality not counting. compound: COc1cc(-c2c(C)cccc2C)cc(C(C)C#Cc2c(C)nc(N)nc2N)c1 (racemic) [Biphenyl antifolate, 6]
Marked response: 1 (yes)

Reference source: BindingDB's records for doi:10.1111/j.1747-0285.2008.00745.x
